Where these numbers come from: paper doi:10.1101/757047v1

Target: STK10 (Homo sapiens, UniProt O94804)
Sequence (O94804 36-294 limits assumed): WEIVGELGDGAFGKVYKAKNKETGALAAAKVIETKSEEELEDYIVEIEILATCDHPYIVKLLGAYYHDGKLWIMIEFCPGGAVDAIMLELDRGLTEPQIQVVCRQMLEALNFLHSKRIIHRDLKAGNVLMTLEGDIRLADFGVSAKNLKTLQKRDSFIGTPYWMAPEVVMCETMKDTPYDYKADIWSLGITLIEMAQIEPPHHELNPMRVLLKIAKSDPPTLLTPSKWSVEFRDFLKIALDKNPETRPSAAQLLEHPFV
Assay: TR-FRET binding displacement assay
pKi: −log10 of the molar value.
measured-parameter: pKi

Look over these answered cases.
COc1cc(Nc2ccnc3cc(Br)ccc23)cc(OC)c1OC    6.42
COc1cc(Nc2ccnc3cc(Cl)ccc23)cc(OC)c1OC    6.68
C#Cc1cccc(Nc2ncnc3cc(OC)c(OC)cc23)c1    6.92

A: COc1cc2ncnc(Nc3ccc(F)c(Cl)c3)c2cc1NC(=O)/C=C/CN1CCCCC1
B: COc1cc(Nc2ccnc3ccccc23)cc(OC)c1OC
Q: For the two items A and B , which reports the higher pKi value? Identify your pick by its label.
Result: A
